- Test system: MCF7 breast
- procedure_text: NCI-60 one-dose screen, 48 h
- run_conditions: 10 µM unless noted
Compounds without any hit were thinned out: in the full panel of roughly 83,000, 20% have a hit. The source made the active and inactive calls. How the source made its calls: active means growth percent below 10; inactive means the rest.
Outcomes: 1 (active), 0 (inactive)

CC(C)CCSc1nc(-c2ccc(F)cc2)c(C#N)c(N2CCN(C)CC2)n1    0
CN1C(=O)C(C(=O)/C=C/c2ccccc2C(=O)O)C(=O)N(C)C1=O    0
C=C(C)[C@@H]1CC[C@]2(C(=O)NC(COC(=O)C(Cl)Cl)(COC(=O)C(Cl)Cl)COC(=O)C(Cl)Cl)CC[C@]3(C)[C@H](CC[C@@H]4[C@@]5(C)CC[C@H](OC(C)=O)C(C)(C)[C@@H]5CC[C@]43C)[C@@H]12    0
N=c1nc(N2CCCCC2)cc(N)n1O    0
C=CCOc1ccc2c(C)cc(=O)oc2c1    0
Cc1cccc(N=NC(=S)NNc2cccc(C)c2)c1    0
CC(C)c1ccc(-c2cnc3nonc3n2)cc1    0
Clc1ccccc1CNc1c2ccccc2nc2ccccc12    1
N=C(N)c1ccc(-c2ccc(-c3ccco3)o2)cc1F    1
Cn1cnc([N+](=O)[O-])c1S(=O)(=O)Oc1ccccc1    0

###

- Tested on: MALME-3M melanoma
- procedure_text: NCI-60 one-dose screen, 48 h (100 = growth as untreated, 0 = no growth, -100 = all killed)
- run_conditions: 10 µM unless noted
This is part of a sample that, as a whole, favours compounds with a hit. Of some 83,000 tested, about 20% had one in any assay. Active and inactive are the calls of the source. The calls were made as follows: active = growth percent below 10; inactive = the rest.
# growth per record follows
property: growth

O=C(O)c1ccccc1Oc1cc(-c2ccco2)nc(OCCN2CCOCC2)n1    98.3% (inactive)
COc1cc(CN(CCC(O)N2CCCC2=O)Cc2ccc3c(c2)OCO3)cc(OC)c1OC (stereo unspecified)    109% (inactive)
COc1cc(C2C(C#N)=C(N)Oc3cc4c(cc32)OCO4)cc2c1OCO2 (stereo unspecified)    52.6% (inactive)
CCOC(=O)Cn1c(-c2nonc2NC(=O)c2ccccc2F)nc2ccccc21    77.4% (inactive)
CCCCCCCCCCCCCCCCCC(=O)OCCCCCCCCCCCCC    130% (inactive)
Cc1cccc(N=NC(=S)NNc2cccc(C)c2)c1    108% (inactive)

###

- Tested on: SK-OV-3 ovarian
- procedure_text: NCI-60 one-dose screen, 48 h
- run_conditions: 10 µM unless noted
The panel holds about 83,000 compounds, 20% with a hit somewhere; the sample as a whole holds those more often. Calls of active or inactive are those of the source. The calls were made as follows: active = growth percent below 10; inactive = the rest.
Outcomes: active, inactive

CC(=O)OC[C@H]1O[C@@H](n2c(=O)cc(N)[nH]c2=O)C(OC(C)=O)[C@@H]1OC(C)=O (stereo not given in full)    inactive
CCCCCCCC/C=C/CCCCCCCC1=NC(C)(C)CN1c1ccccc1    inactive
Clc1ccccc1CNc1c2ccccc2nc2ccccc12    inactive
NNC(=O)CSc1nc2scc(-c3ccccc3)c2c(=O)n1-c1ccccc1    inactive
Cc1cc(Nc2c3ccccc3nc3ccccc23)ccc1NS(C)(=O)=O    inactive
C=C1C[C@@]2(C)C(CC[C@]3(C)C2CC=C2C4CC(C)(C)C[C@@H](OC(=O)/C(C)=C\C)[C@]4(C(=O)O)CC[C@]23C)C(C)(C)C1=O (stereo not given in full)    inactive
CNC1=C([N+](=O)[O-])C(c2ccccc2O)C(C#N)=C(c2cccs2)O1 (stereo not given)    inactive
CC1=C(O)C(=O)CC1    inactive
O=C(Nc1cccc(-n2ccc3c(NC(=O)c4ccccc4)nccc32)c1)c1ccc(N2CCOCC2)c(C(F)(F)F)c1    active
CCOC(=O)Nc1ccc2nc(N3CCCCCC3)sc2c1    active

Data origin: PubChem BioAssay (NCI)
